Every entry's value here was drawn from PubChem BioAssay AID1963866.

Entries and their viability, T/C
- Tested on: PDC KRAS tumor spheroids with HUVEC/MSC, viability
- Assay protocol: Anticancer human tumor 349418-098-R-PDC patient-derived lung adenocarcinoma cell line growth inhibition [KRAS2]
- Experimental parameters: second compound 10 µM; first compound 1 µM; active compounds read low
Lab book: enter the figure in %, no units written.

For orientation, consider the following solved cases.
CCNC(=O)CC1N=C(c2ccc(Cl)cc2)c2cc(OC)ccc2-n2c(C)nnc21 (stereo not drawn) + CC1OCC2(CCN(c3cnc(Sc4ccnc(N)c4Cl)c(N)n3)CC2)C1N | 7.82
COC(=O)c1ccc2c(C(=Nc3ccc(N(C)C(=O)CN4CCN(C)CC4)cc3)c3ccccc3)c(O)[nH]c2c1 + COc1cc2nc(C)nc(NC(C)c3cc(N)cc(C(F)(F)F)c3)c2cc1OC1CCOC1 | 11.3

From here, focus on the item given below.
What value of measured viability, T/C is listed for CCN1CCN(Cc2ccc(Nc3ncc(F)c(-c4cc(F)c5nc(C)n(C(C)C)c5c4)n3)nc2)CC1 + C=CC(=O)N1CCN(c2nc(=O)n(-c3c(C)ccnc3C(C)C)c3nc(-c4c(O)cccc4F)c(F)cc23)C(C)C1 ?
0.93

----------
- Test system: PDC KRAS tumor spheroids with HUVEC/MSC, viability
- Assay protocol: Anticancer human tumor 349418-098-R-PDC cell line growth inhibition [KRAS2];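 further: spheroids exposed to compounds for seven days before readout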
- Experimental parameters: second compound 0.1 µM; first compound 0.1 µM; active compounds read low
Measurement label: viability, T/C (%)
Lab book: enter the figure in %, no units written.

For orientation, consider the following solved cases.
CN(C)C/C=C/C(=O)Nc1cc2c(Nc3ccc(F)c(Cl)c3)ncnc2cc1O[C@H]1CCOC1 + CNCc1ccccc1-c1csc(C(C)Nc2nc(C)nc3cc(OC)c(OC)cc23)c1 | 91.5
COc1cc2nccc(Oc3ccc(NC(=O)C4(C(=O)Nc5ccc(F)cc5)CC4)cc3)c2cc1OC + COc1cc2nc(C)nc(NC(C)c3cc(N)cc(C(F)(F)F)c3)c2cc1OC1CCOC1 | 107
Cn1nccc1Nc1nccc(-c2cc3c(s2)C(C)(C)N(CCN2CCOCC2)C3=O)n1 + C=CC(=O)N1CCN(c2nc(=O)n(-c3c(C)ccnc3C(C)C)c3nc(-c4c(O)cccc4F)c(F)cc23)C(C)C1 | 46.1
Cn1ncnc1[C@H]1c2n[nH]c(=O)c3cc(F)cc(c23)N[C@@H]1c1ccc(F)cc1 + CC1OCC2(CCN(c3cnc(Sc4ccnc(N)c4Cl)c(N)n3)CC2)C1N | 85.8
CC(C)NCC(C(=O)N1CCN(c2ncnc3c2C(C)CC3O)CC1)c1ccc(Cl)cc1 (centres undefined) + COc1cc2nc(C)nc(NC(C)c3cc(N)cc(C(F)(F)F)c3)c2cc1OC1CCOC1 | 73

What value of measured viability, T/C is listed for CN(C)C/C=C/C(=O)Nc1cc2c(Nc3ccc(F)c(Cl)c3)ncnc2cc1O[C@H]1CCOC1 + C=CC(=O)N1CCN(c2nc(OCC3CCCN3C)nc3c2CCN(c2cccc4cccc(C)c24)C3)CC1CC#N ?
83.9

Quick one: CCN1CCN(Cc2ccc(Nc3ncc(F)c(-c4cc(F)c5nc(C)n(C(C)C)c5c4)n3)nc2)CC1 + C=CC(=O)N1CCN(c2nc(=O)n(-c3c(C)ccnc3C(C)C)c3nc(-c4c(O)cccc4F)c(F)cc23)C(C)C1
18

Quick one: CN(C)C/C=C/C(=O)Nc1cc2c(Nc3ccc(F)c(Cl)c3)ncnc2cc1O[C@H]1CCOC1 + CC1OCC2(CCN(c3cnc(Sc4ccnc(N)c4Cl)c(N)n3)CC2)C1N
103
